target: α4β7 integrin (Homo sapiens, UniProt P13612+P26010); construct: a cell line RPMI-8866, which is known to express α4β7 integrin; endogenous in cells; host or cells: RPMI-8866 (human B cell line); experiment: MAdCAM-1/α4β7 integrin binding inhibitory activity evaluation test in presence of serum; type: cell-based; details: RPMI-8866 cells, recombinant mouse MAdCAM-1/Fc, 50% human serum; read-out: α4β7 Serum Added IC50
Sequence (P13612 34-1032): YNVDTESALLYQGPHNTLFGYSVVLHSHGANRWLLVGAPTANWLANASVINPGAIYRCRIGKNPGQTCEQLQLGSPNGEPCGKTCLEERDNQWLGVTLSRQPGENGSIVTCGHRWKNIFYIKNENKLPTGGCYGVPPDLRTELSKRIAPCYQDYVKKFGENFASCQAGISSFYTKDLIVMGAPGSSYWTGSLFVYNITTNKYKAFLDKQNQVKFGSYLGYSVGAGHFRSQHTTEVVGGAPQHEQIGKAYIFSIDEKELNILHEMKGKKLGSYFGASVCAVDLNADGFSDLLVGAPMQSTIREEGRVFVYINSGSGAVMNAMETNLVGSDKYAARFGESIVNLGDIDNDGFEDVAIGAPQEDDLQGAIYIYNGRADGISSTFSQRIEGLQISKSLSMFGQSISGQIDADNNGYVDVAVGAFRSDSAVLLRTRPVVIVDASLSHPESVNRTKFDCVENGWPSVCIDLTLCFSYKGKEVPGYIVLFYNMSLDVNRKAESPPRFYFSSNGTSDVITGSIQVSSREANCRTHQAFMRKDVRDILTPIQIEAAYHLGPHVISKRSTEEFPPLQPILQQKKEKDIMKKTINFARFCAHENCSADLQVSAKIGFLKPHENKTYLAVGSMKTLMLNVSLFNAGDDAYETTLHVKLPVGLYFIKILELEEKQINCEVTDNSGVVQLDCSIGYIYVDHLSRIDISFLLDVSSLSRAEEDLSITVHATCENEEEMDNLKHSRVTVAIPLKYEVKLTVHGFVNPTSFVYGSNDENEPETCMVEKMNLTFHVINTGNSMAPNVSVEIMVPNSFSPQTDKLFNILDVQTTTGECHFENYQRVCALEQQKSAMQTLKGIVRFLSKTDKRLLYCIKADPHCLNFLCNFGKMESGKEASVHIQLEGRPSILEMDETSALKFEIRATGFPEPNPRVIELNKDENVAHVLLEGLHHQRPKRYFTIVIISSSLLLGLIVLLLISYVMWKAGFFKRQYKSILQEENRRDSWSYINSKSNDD
Sequence (P26010 20-798): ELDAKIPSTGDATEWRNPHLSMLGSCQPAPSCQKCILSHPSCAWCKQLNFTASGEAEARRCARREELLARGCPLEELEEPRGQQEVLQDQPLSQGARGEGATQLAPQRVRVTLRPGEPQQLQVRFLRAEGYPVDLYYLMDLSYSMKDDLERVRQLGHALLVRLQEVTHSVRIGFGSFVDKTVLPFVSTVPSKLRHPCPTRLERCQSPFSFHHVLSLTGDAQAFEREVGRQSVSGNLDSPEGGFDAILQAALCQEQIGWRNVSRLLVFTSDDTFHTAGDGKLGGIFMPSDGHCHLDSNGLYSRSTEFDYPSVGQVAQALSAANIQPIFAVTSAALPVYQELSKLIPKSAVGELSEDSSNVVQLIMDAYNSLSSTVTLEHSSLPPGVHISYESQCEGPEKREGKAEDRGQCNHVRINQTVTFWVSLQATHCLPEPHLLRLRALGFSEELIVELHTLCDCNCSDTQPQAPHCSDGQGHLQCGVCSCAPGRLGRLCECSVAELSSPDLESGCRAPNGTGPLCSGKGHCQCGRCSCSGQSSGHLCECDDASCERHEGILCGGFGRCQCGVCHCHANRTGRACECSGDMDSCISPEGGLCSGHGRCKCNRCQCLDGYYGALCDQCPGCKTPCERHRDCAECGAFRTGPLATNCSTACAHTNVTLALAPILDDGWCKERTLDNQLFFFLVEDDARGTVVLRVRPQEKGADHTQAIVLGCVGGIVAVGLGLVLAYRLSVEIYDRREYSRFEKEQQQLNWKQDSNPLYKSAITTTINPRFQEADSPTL
MEASURE: IC50 (nM)

Cn1c(=O)n(-c2ccc(C[C@H](NC(=O)c3cc(F)c(NS(=O)(=O)c4ccc(NC(=O)C(C)(C)C)cc4)cc3F)C(=O)O)cn2)c(=O)c2ccncc21; 6.4

[a] Cn1ccc(=O)n(-c2ccc(C[C@H](NC(=O)c3cc(F)c(NS(=O)(=O)c4ccc(NC(=O)C(C)(C)C)cc4)cc3F)C(=O)O)nc2)c1=O
[b] COc1cc2c(=O)n(-c3ccc(C[C@H](NC(=O)c4cc(F)c(NS(=O)(=O)c5ccc(NC(=O)C(C)(C)C)cc5)cc4F)C(=O)O)cc3)c(=O)n(C)c2cn1
Please state the entry with greater IC50 among a and b . Response format: the label of the selected entry.
a
(a: 33 nM, b: 18 nM)

---

biological target: α4β7 integrin (Homo sapiens, UniProt P13612+P26010); construct: a cell line RPMI-8866, which is known to express α4β7 integrin; endogenous in cells; host or cells: RPMI-8866 (human B cell line); test: MAdCAM-1/α4β7 integrin binding inhibitory activity evaluation test (RPMI-8866 cells binding to MAdCAM-1/Fc); type: cell-based; conditions: recombinant mouse MAdCAM-1/Fc, no serum
pIC50: −log10 of the molar value.
MEASURE: pIC50

Cc1cn(C)c(=O)n(-c2ccc(C[C@H](NC(=O)c3cc(F)c(NS(=O)(=O)c4ccc(NC(=O)C(C)(C)C)cc4)cc3F)C(=O)O)cc2)c1=O [Compound A37]; 8.96
Cc1cn(C)c(=O)n(-c2ccc(C[C@H](NC(=O)c3cc(F)c(NS(=O)(=O)c4ccc5c(NC(=O)C(C)(C)C)c[nH]c5c4)cc3F)C(=O)O)cn2)c1=O [Compound A74]; 8.11
Cc1cn(C)c(=O)n(-c2ccc(C[C@H](NC(=O)c3cc(F)c(NS(=O)(=O)c4c[nH]c5cc(NC(=O)C(C)(C)C)ccc45)cc3F)C(=O)O)cn2)c1=O [Compound A77]; 8.44
Cc1c(C)n(C)c(=O)n(-c2ccc(C[C@H](NC(=O)c3cc(F)c(NS(=O)(=O)c4ccc(NC(=O)C(C)(C)CO)cc4)cc3F)C(=O)O)cc2)c1=O [Compound A21]; 9.47
Cc1cn(C)c(=O)n(-c2ccc(C[C@H](NC(=O)c3cc(F)c(NS(=O)(=O)c4cc5cc(NC(=O)C(C)(C)C)ccc5[nH]4)cc3F)C(=O)O)cn2)c1=O [Compound A76]; 8.70
Cn1ccc(=O)n(-c2ccc(C[C@H](NC(=O)c3cc(F)c(NS(=O)(=O)c4ccc(NC(=O)C5(C#N)CC5)cc4)cc3F)C(=O)O)cn2)c1=O [Compound A59]; 8.48
Cc1cn(C)c(=O)n(-c2ccc(C[C@H](NC(=O)c3cc(F)c(NS(=O)(=O)c4ccc(NC(=O)C#CC(C)(C)C)cc4)cc3F)C(=O)O)cn2)c1=O [Compound A68]; 8.30
Cn1ccc(=O)n(-c2ccc(C[C@H](NC(=O)c3cc(F)c(NS(=O)(=O)c4ccc(NC(=O)C(C)(C)C)cc4)cc3F)C(=O)O)nc2)c1=O [Compound A70]; 8.47

[1] CCC(CC)C(=O)Nc1ccc(S(=O)(=O)Nc2cc(F)c(C(=O)N[C@@H](Cc3ccc(-n4c(=O)ccn(C)c4=O)nc3)C(=O)O)cc2F)cc1 [Compound A61]
[2] Cc1cn(C)c(=O)n(-c2ccc(C[C@H](NC(=O)c3cc(F)c(NS(=O)(=O)c4ccc(NC(=O)C(C)C)cc4)cc3F)C(=O)O)cn2)c1=O [Compound A71]
Identify the entry with the smaller pIC50: 1 or 2 . Response format: the label of the selected entry.
1
